# Test system: HEK293
# protocol summary: Cytotoxicity in human HEK293 cells assessed as effect on cell proliferation upto 150 uM
# Assay type: cell-based

{"compound": "O=C(O)CC(Cc1ccc2c(c1)OCO2)C(=O)O (centres undefined)", "tgt": "HEK293", "Activity": "Non-toxic"}
{"compound": "NC(=O)c1ncn([C@@H]2O[C@H](COP(=O)(O)O)[C@@H](O)[C@H]2O)n1 [RIBAVIRIN MONOPHOSPHATE]", "tgt": "HEK293", "Activity": "Non-toxic"}
{"compound": "O=C(O)c1cc(C(=O)O)cc(S(=O)(=O)NCCO)c1", "tgt": "HEK293", "Activity": "Non-toxic"}
{"compound": "Cc1cc(C(=O)O)c(C(=O)O)c(O)n1", "tgt": "HEK293", "Activity": "Non-toxic"}

====

# tgt: Transcription factor GATA-4 (Homo sapiens)
# protocol summary: Inhibition of GATA4- mediated BNP promoter activation in HeLa cells at 100 uM after 24 hrs by luciferase reporter gene assay
# Assay type: cell-based
Field: inhibition. Provide a value for each of the compounds that follow.

INPUT: Fill in: inhibition of O=C(O)CC(Cc1ccc2c(c1)OCO2)C(=O)O (centres undefined) is ___
OUTPUT: 35%

INPUT: Fill in: inhibition of NC(=O)c1ncn([C@@H]2O[C@H](COP(=O)(O)O)[C@@H](O)[C@H]2O)n1 [RIBAVIRIN MONOPHOSPHATE] is ___
OUTPUT: 16%

INPUT: Fill in: inhibition of Cc1cc(C(=O)O)c(C(=O)O)c(O)n1 is ___
OUTPUT: 35%

====

# tgt: UniProt:P43694
# Sequence (P43694 whole entry): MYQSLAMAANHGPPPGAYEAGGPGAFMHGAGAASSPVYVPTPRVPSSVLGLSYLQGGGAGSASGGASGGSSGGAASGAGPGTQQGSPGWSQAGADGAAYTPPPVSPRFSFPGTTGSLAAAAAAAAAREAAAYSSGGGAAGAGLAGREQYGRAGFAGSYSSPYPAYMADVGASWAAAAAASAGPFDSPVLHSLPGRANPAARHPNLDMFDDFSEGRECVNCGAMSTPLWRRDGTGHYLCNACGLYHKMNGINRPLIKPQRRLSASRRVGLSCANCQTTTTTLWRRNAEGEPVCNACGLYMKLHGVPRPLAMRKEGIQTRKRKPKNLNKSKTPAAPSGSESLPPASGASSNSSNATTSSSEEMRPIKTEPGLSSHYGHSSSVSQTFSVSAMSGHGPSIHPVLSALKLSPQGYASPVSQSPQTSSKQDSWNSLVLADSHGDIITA
# protocol summary: Inhibition of GATA4-DNA interaction in HEK293 nuclear extract at 50 uM after 15 mins by EMSA assay
# Type: cell-free
The source made the active and inactive calls. The calls are words filed in the database; no cut-off is given here.
measure name: inhibition

{"compound": "O=C(O)CC(Cc1ccc2c(c1)OCO2)C(=O)O (centres undefined)", "reported value": "60%"}
{"compound": "O=C(O)c1cc(C(=O)O)cc(S(=O)(=O)NCCO)c1", "reported value": "Active"}
{"compound": "NC(=O)c1ncn([C@@H]2O[C@H](COP(=O)(O)O)[C@@H](O)[C@H]2O)n1 [RIBAVIRIN MONOPHOSPHATE]", "reported value": "Active"}
{"compound": "Cc1cc(C(=O)O)c(C(=O)O)c(O)n1", "reported value": "Active"}

====

# Tested on: HeLa
# protocol summary: Drug uptake in human HeLa cells after 24 hrs
# Assay type: ADME, cell-based

{"molecule": "Cc1cc(C(=O)O)c(C(=O)O)c(O)n1", "Drug uptake": "Active"}
{"molecule": "O=C(O)CC(Cc1ccc2c(c1)OCO2)C(=O)O (centres undefined)", "Drug uptake": "Active"}
{"molecule": "NC(=O)c1ncn([C@@H]2O[C@H](COP(=O)(O)O)[C@@H](O)[C@H]2O)n1 [RIBAVIRIN MONOPHOSPHATE]", "Drug uptake": "Active"}

====

# tgt: UniProtKB Q08369
# Sequence (Q08369 whole entry): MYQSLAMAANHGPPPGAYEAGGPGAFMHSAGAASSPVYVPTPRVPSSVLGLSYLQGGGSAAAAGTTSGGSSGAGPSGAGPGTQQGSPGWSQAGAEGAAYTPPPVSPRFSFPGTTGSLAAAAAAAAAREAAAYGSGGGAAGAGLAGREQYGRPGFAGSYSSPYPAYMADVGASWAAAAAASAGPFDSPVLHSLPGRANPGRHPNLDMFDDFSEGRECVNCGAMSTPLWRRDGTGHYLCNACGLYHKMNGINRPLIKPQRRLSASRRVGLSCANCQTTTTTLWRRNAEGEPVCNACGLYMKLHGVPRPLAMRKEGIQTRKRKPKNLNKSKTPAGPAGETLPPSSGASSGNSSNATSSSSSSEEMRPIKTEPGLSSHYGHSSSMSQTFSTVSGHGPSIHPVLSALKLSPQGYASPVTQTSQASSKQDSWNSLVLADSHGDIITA
# protocol summary: Inhibition of GATA4 in mouse C2C12 cells assessed as myoblast differentiation to myotubes at 100 uM after 48 hrs by immunofluorescence assay in presence of 20 % FBS relative to control
# Format: cell-based
Activity calls are given as the source filed them. The rule behind the calls is not given here.
Log the outcome using a class from active, inactive

INPUT: Dear colleague, could you share the recorded outcome for O=C(O)c1cc(C(=O)O)cc(S(=O)(=O)NCCO)c1 when you have a moment?
OUTPUT: active

INPUT: Dear colleague, could you share the recorded outcome for NC(=O)c1ncn([C@@H]2O[C@H](COP(=O)(O)O)[C@@H](O)[C@H]2O)n1 [RIBAVIRIN MONOPHOSPHATE] when you have a moment?
OUTPUT: inactive

INPUT: Dear colleague, could you share the recorded outcome for Cc1cc(C(=O)O)c(C(=O)O)c(O)n1 when you have a moment?
OUTPUT: inactive

INPUT: Dear colleague, could you share the recorded outcome for O=C(O)CC(Cc1ccc2c(c1)OCO2)C(=O)O (centres undefined) when you have a moment?
OUTPUT: active
